Where do these numbers come from? They come from patent US20160376353A1.

- TESTED ON: T1, Biotin-labeled N2 peptide (also: biotin label, position not given here)
- T1 construct: also called immobilized N2
- T1 peptide: LMKNMDPLNDNV
- METHOD: SPR (BIACORE X100), biotin-N2 peptide on NeutrAvidin chip, antibody in solution; kd/ka (monovalent)
Ends that are not written are not given here.
MEASURE: Kd

Prompt line: Fill blank: measured Kd of the binder Chimeric 21G6, human heavy chain constant region IgG1 with Q297 mutation (antibody, V domains shown, Human IgG1 constant region with Asn 297 to Gln; also called ch21G6 N297Q) VH: QVQLQQPGAELVKPGASVKLSCKASGYTFTSYYMYWVKQRPGQGLEWIGGINPSNGGTNFNEKFKSKATLTVDKSSSTAYMQLSSLTSEDSAVYYCTRWGYDREWFAYWGQGTLVTVSA VL: DIVMTQAAPSVPVTPGESVSISCRSSKSLLHSNGNTYLYWFLQRPGQSPQVLIYRMSNLASGVPDRFSGSGSGTAFTLRISRVEAEDVGVYYCMQHLEYPFTFGSGTKLEIKR is ____.
Response line: 100 to 200 nM

Prompt line: Any idea what its Kd is? The binder is Murine 21G6 antibody (antibody, V domains shown, also called m21G6) VH: QVQLQQPGAELVKPGASVKLSCKASGYTFTSYYMYWVKQRPGQGLEWIGGINPSNGGTNFNEKFKSKATLTVDKSSSTAYMQLSSLTSEDSAVYYCTRWGYDREWFAYWGQGTLVTVSA VL: DIVMTQAAPSVPVTPGESVSISCRSSKSLLHSNGNTYLYWFLQRPGQSPQVLIYRMSNLASGVPDRFSGSGSGTAFTLRISRVEAEDVGVYYCMQHLEYPFTFGSGTKLEIKR
Response line: 200 to 400 nM

Prompt line: Please look up its Kd: H1-21G6 / L1-21G6 (Table 2, constant region not stated) (antibody, V domains shown, human kappa light chain; also called H1/L1) VH: QVQLVQSGAEVVKPGASVKLSCKASGYTFTSYYMYWVKQAPGQGLEWIGGINPSNGGTNFNEKFKSKATLTVDKSASTAYMELSSLRSEDTAVYYCTRWGYDREWFAYWGQGTLVTVSS VL: DIVMTQSPATLSVSPGERATISCRSSKSLLHSNGNTYLYWFQQKPGQPPKVLIYRMSNLASGVPARFSGSGSGTDFTLTISSVEPEDFATYYCMQHLEYPFTFGGGTKLEIKR
Response line: 100 to 430 nM
